- System: IGROV1
- test_method_notes: NCI60 five-dose screen, Ovarian Cancer
- Format: cell-based
- protocol_conditions: Homo sapiens, IGROV-1; IGROV1, Ovarian Cancer; five-dose screen; read-out: GI50
Reported GI50 by item:
measured_parameter: GI50

| substance_smiles | reported_measurement |
| --- | --- |
| CC[C@]12C=CCN3CC[C@@]4(c5ccc(OC)cc5N(C)[C@H]4[C@@](O)(C(=O)OC)[C@@H]1OC(=O)CCCN1CCN(Cc4ccc(C(F)(F)F)cc4)CC1)[C@@H]32 | 1.78 µM |
| CC[C@]12C=CCN3CC[C@@]4(c5ccc(OC)cc5N(C)[C@H]4[C@@](O)(C(=O)OC)[C@@H]1OC(=O)CCCN1CCN(Cc4ccc(F)cc4)CC1)[C@@H]32 | 2.51 µM |
| CC[C@]12C=CCN3CC[C@@]4(c5ccc(OC)cc5N(C)[C@H]4[C@@](O)(C(=O)OC)[C@@H]1OC(=O)CCCN1CCN(c4ccc(C(F)(F)F)cc4)CC1)[C@@H]32 | 2 µM |
